Entries and their measured EC50 follow.
- target of assay: S1P1/EDG1 (Homo sapiens)
- Sequence (P21453 whole entry): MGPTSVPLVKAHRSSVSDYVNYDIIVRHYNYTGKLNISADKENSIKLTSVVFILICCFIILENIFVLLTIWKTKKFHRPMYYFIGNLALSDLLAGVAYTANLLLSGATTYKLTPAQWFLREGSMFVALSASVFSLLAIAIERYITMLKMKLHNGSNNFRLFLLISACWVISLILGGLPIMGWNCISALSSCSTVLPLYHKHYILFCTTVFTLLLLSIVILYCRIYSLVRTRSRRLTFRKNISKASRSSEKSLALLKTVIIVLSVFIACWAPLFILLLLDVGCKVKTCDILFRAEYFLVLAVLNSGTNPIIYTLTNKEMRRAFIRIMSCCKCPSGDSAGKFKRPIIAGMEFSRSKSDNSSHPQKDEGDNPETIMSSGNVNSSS
- test name: S1P1 CRE-bla CHOK1 reporter assay, inhibition of Forskolin induced cAMP
- Format: cell-based
- test settings: CRE-bla CHOK1 cells, 2 μM Forskolin; read-out: S1P1 ACTIVITY (agonist activity)
- Excerpt: Generation of S1P1-Mediated Inhibition of cAMP Reporter Assay S1P1/pcDNA3.1 was transfected into the CRE-bla CHO K1 (Invitrogen) cell line, and stable single cell clones were selected using standard techniques. S1P1 CRE-Bla CHOK1 Reporter Assay—Characterization of S1P1 Agonists […]
reported property: EC50

compound: CC(C)Oc1ccc(-c2nc(-c3cccc4c3CC[C@@H]4N(C)CC(=O)N(C)C)no2)cc1C#N [Compound 115]
reported property: EC50
result: 0.5 to 5 nM

compound: CCOc1ccc(-c2nc(-c3cccc4c3CC[C@H]4O)no2)cc1[N+](=O)[O-] [Compound 11]
reported property: EC50
result: 0.5 to 5 nM

compound: CC(C)Oc1ccc(-c2nc(-c3cccc4c3CC[C@H]4NC(C)C(=O)N(C)C)no2)cc1C#N (stereo partly shown) [Compound 58]
reported property: EC50
result: 0.5 to 5 nM

compound: CC(C)Oc1ccc(-c2nc(-c3cccc4c3CC[C@H]4N(C)CCO)no2)cc1C#N [Compound 111]
reported property: EC50
result: 0.5 to 5 nM

compound: CC(C)Oc1ccc(-c2nc(-c3cccc4c3CC[C@@H]4NS(=O)(=O)CCN3CCC(O)CC3)no2)cc1C#N [Compound 178]
reported property: EC50
result: 0.5 to 5 nM

compound: CC(C)Oc1ccc(-c2nc(-c3cccc4c3CC[C@H]4NCC(=O)N3CCOCC3)no2)cc1C#N [Compound 59]
reported property: EC50
result: 0.05 to 0.5 nM

compound: CC(C)Oc1ccc(-c2nc(-c3cccc4c3CC[C@@H]4NS(=O)(=O)CCN3CC(O)C3)no2)cc1C#N [Compound 181]
reported property: EC50
result: 0.05 to 0.5 nM

###

- target of assay: S1P4 (Homo sapiens)
- Construct: fused on or other part: Tango handle at the receptor's C-terminus: a TEV protease cleavage site and the Gal4-VP16 transcription factor, possibly a V2 vasopressin receptor tail; The cells also carry a beta-arrestin/TEV protease fusion and a UAS-beta-lactamase reporter
- Sequence (O95977 1-384): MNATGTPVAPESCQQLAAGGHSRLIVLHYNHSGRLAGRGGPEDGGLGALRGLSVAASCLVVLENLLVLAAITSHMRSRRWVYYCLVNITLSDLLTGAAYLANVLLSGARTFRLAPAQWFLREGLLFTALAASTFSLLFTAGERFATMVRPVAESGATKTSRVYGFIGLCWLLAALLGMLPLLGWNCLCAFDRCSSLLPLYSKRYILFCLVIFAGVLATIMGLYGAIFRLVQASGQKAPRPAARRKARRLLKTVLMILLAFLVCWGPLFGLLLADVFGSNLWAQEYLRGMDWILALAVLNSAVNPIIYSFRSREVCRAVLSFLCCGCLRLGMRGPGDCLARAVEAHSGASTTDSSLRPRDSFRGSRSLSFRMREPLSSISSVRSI
- test name: Specificity over other S1P receptors: S1P4-bla TANGO U2OS
- test settings: without Forskolin, read-out: S1P4 agonist value (EC50)
pEC50: −log10 of the molar value.

compound: CC(C)Oc1ccc(-c2nc(-c3cccc4c3CCC4NS(=O)(=O)CCO)no2)cc1C#N (stereo in doubt) [Compound 186]
pEC50: 5.92
